# MEASURED_TARGET: Oxytocin receptor (Homo sapiens)
# ASSAY_METHOD_TEXT: Activity at OT receptor assessed as oxytocic activity in absence of magnesium
# Assay type: functional
# RUN_CONDITIONS: filed as agonist
Positions of bridges follow the written chain, without caps; N, C: chain ends. Non-standard residues stand in square brackets, D forms with d. Residues, ends and D or L forms follow the SMILES beside them. Orn = NCCC[C@H](N)C(=O)O; Dab = NCC[C@H](N)C(=O)O; Dap = NC[C@H](N)C(=O)O; Mpa = O=C(O)CCS
Exercise: for every item that follows, state its recorded Activity.

Reference set, count: 4
COMPOUND	Activity
NCCCC[C@H](NC(=O)[C@@H]1CCCN1C(=O)[C@@H]1CSSCCC(=O)N[C@@H](Cc2ccc(O)cc2)C(=O)N[C@@H](Cc2ccccc2)C(=O)N[C@@H](CCCN)C(=O)N[C@@H](CC(N)=O)C(=O)N1)C(=O)NCC(N)=O ([Mpa]YF[Orn]NCPKG-NH2; disulfide 1-6)	3.1 U/mg
N=C(N)NCCC[C@@H]1NC(=O)[C@H](Cc2ccccc2)NC(=O)[C@H](Cc2ccc(O)cc2)NC(=O)CCSSC[C@@H](C(=O)N2CCC[C@H]2C(=O)N[C@@H](CCCN)C(=O)NCC(N)=O)NC(=O)[C@H](CC(N)=O)NC1=O ([Mpa]YFRNCP[Orn]G-NH2; disulfide 1-6)	0.06 U/mg
CC(C)C[C@@H]1NC(=O)[C@H](Cc2ccccc2)NC(=O)[C@H](Cc2ccc(O)cc2)NC(=O)CCSSC[C@@H](C(=O)N2CCC[C@H]2C(=O)N[C@@H](CCN)C(=O)NCC(N)=O)NC(=O)[C@H](CC(N)=O)NC1=O ([Mpa]YFLNCP[Dab]G-NH2; disulfide 1-6)	0.27 U/mg
CC(C)C[C@@H]1NC(=O)[C@H](Cc2ccccc2)NC(=O)[C@H](Cc2ccc(O)cc2)NC(=O)CCSSC[C@@H](C(=O)N2CCC[C@H]2C(=O)N[C@@H](CN)C(=O)NCC(N)=O)NC(=O)[C@H](CC(N)=O)NC1=O ([Mpa]YFLNCP[Dap]G-NH2; disulfide 1-6)	0.046 U/mg

State its Activity: NC[C@H](NC(=O)[C@@H]1CCCN1C(=O)[C@@H]1CSSCCC(=O)N[C@@H](Cc2ccc(O)cc2)C(=O)N[C@@H](Cc2ccccc2)C(=O)N[C@@H](CCC(N)=O)C(=O)N[C@@H](CC(N)=O)C(=O)N1)C(=O)NCC(N)=O ([Mpa]YFQNCP[Dap]G-NH2; disulfide 1-6)
0.9 U/mg

Value source: ChEMBL document CHEMBL1141418
